assay: chemical genetic growth profiling, strain panel (AID 1159580);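 further: tested at 20 µM; growth read once vehicle control cultures reached saturation at 30 °C; 1 = growth at the plate median or of vehicle wells; lower values mean less growth of the strain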; details: S. cerevisiae deletion strains, growth OD, locus YPR141C, strain kar3, active compounds read low
The campaign covered roughly 5,500 compounds. About 2,000 (36%) were called active. Inconclusive results (about 18%) are left out. Some of the results follow.
endpointName: normalized growth

// worked examples, normalized growth included
* Nc1ccc(C(=O)NCC(=O)O)cc1 | 1.01 (inactive)
* CC1(C)C(O)CC(O)C2(C)C1CC(O)C1(C)C2CCC2(C)C(c3ccoc3)CC3OC321 (stereo not given) | 1.02 (inactive)
* CC(=O)NCCCCCC(=O)O | 0.989 (inactive)
* CN/C(=C\[N+](=O)[O-])NCCSCc1ccc(CN(C)C)o1 | 0.995 (inactive)

Tell me measured normalized growth for CC(=O)O[C@@H]1CC2C(C)(C)C(=O)CC[C@]2(C)C2CC[C@]3(C)C(=CC(=O)O[C@H]3c3ccoc3)[C@@]21C (stereo not given in full) please.
0.982 (inactive)
